Each recorded value in this set is attributed to ChEMBL document CHEMBL3886244.

EC50 for assorted molecules
# MEASURED TARGET: Glucose-dependent insulinotropic receptor (Homo sapiens)
# Sequence (Q8TDV5 whole entry): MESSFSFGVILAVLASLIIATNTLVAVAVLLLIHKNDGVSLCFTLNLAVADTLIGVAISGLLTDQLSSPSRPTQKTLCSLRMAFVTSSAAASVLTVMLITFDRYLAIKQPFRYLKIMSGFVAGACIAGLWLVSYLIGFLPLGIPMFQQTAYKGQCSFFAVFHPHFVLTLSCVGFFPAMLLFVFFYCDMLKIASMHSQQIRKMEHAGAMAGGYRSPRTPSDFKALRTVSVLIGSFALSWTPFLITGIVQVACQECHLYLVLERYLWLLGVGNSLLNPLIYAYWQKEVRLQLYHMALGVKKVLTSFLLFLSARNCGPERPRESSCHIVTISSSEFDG
# PROTOCOL NOTES: AlphaScreen cAMP Assay: MIN6 cells [Miyazaki J et al. Endocrinology. 1990 July; 127(1):126-32] were stably transfected with an expression vector for human GPR119 cDNA (Acc. No. NP-848566). Min-6/hGPR119 cells are cultured in DMEM, 10% FBS, 50 uM beta-mercaptoethanol, 0.3 mg/mL Geniticin, 2 mM GlutaMAX at 37 C. 5% CO2. For the assay, the cells are placed in Optiplates (white, 384-well, 160W-barcoded, TC, sterile with lid, Cat. No. #6007688 (Perkin Elmer); 10000 cells/well; 50 ul). The plates covered with lids are then incubated for 24 hours at 37 C./5% CO2.After the medium has been sucked out of the wells completely, 10 ul of the test compound are added, the compounds are diluted beforehand with stimulating buffer (140 mM NaCl, 3.6 mM KCl, 0.5 mM NaH2PO4, 0.5 mM MgSO4, 1.5 mM CaCl2, 10 mM Hepes, 5 mM NaHCO3; pH 7.4. 0.5 mM IBMX and 0.1% BSA, the final DMSO concentration is 1%). After 45 minutes' incubation at RT, the cAMP concentrations are determined using the AlphaScreen cAMP Assay.
Express it in nM; write the number only.

MOLECULE	UNIT INFO	REPORTED
CCOc1ccc(-c2nc3ccc(C4=NNC(=O)CC4CC)cc3o2)cc1 (stereo not drawn)	nM	114

Attention now shifts to the item below.
Lab note: measured EC50 of CC1CC(=O)NN=C1c1ccc2nc(-c3ccsc3)oc2c1 (stereo not drawn) was 267
